// provenance: PubChem BioAssay AID2060493

In this section, each of the compounds is paired with its reported viability, T/C.
- System: 616215-338-R-J1-PDC tumor spheroids, viability
- procedure_details: Anticancer human tumor 616215-338-R-J1-PDC patient-derived colon adenocarcinoma cell line growth inhibition [GQUAD]
- test_conditions: second compound 0.1 µM; first compound 0.0999 µM; active compounds read low; spheroids with HUVEC and MSC
Use % as the unit, but write only the number.

• Cn1ncnc1[C@H]1c2n[nH]c(=O)c3cc(F)cc(c23)N[C@@H]1c1ccc(F)cc1 + CN(C)c1ccc(Nc2c3ccc(NC(=O)CCN4CCCC4)cc3nc3cc(NC(=O)CCN4CCCC4)ccc23)cc1 = 95
• Cc1[nH]c2ccccc2c1CCNCc1ccc(/C=C/C(=O)NO)cc1 + CN(C)c1ccc(Nc2c3ccc(NC(=O)CCN4CCCC4)cc3nc3cc(NC(=O)CCN4CCCC4)ccc23)cc1 = 61.2
• Cc1[nH]c2ccccc2c1CCNCc1ccc(/C=C/C(=O)NO)cc1 + Cc1[nH]c2ccc(F)cc2c1-c1nc2c3cccnc3c3ncccc3c2[nH]1 = 89.6
• CCc1c2c(nc3ccc(O)cc13)-c1cc3c(c(=O)n1C2)COC(=O)[C@]3(O)CC + CN(C)c1ccc(Nc2c3ccc(NC(=O)CCN4CCCC4)cc3nc3cc(NC(=O)CCN4CCCC4)ccc23)cc1 = 13.8
• CC[C@@]1(O)C(=O)OCc2c1cc1n(c2=O)Cc2cc3c(CN(C)C)c(O)ccc3nc2-1 + Cc1[nH]c2ccc(F)cc2c1-c1nc2c3cccnc3c3ncccc3c2[nH]1 = 89.5

Could you tell me which viability, T/C is on file for CCc1c2c(nc3ccc(O)cc13)-c1cc3c(c(=O)n1C2)COC(=O)[C@]3(O)CC + Cc1[nH]c2ccc(F)cc2c1-c1nc2c3cccnc3c3ncccc3c2[nH]1 ?
24.9

Could you tell me which viability, T/C is on file for Cn1ncnc1[C@H]1c2n[nH]c(=O)c3cc(F)cc(c23)N[C@@H]1c1ccc(F)cc1 + Cc1[nH]c2ccc(F)cc2c1-c1nc2c3cccnc3c3ncccc3c2[nH]1 ?
105

Could you tell me which viability, T/C is on file for Cn1ncnc1[C@H]1c2n[nH]c(=O)c3cc(F)cc(c23)N[C@@H]1c1ccc(F)cc1 + Cc1cnc(CNC(=O)c2c(=O)c3ccc(N4CCCN(C)CC4)nc3n3c2sc2ccccc23)cn1 ?
58.5

----------
- Test system: 616215-338-R-J1-PDC tumor spheroids, viability
- procedure_details: Anticancer human tumor 616215-338-R-J1-PDC cell line growth inhibition [GQUAD];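 note: spheroids exposed to agents for 7 days before readout; percent viability relative to DMSO vehicle control wells taken as 100%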
- test_conditions: second compound 0.1 µM; first compound 0.1 µM; active compounds read low; spheroids with HUVEC and MSC
- Excerpt: DNA G-quadruplex Stabilizer Agents in Combinations in Complex Spheroids A high-throughput screen of multi-cell type tumor spheroids was designed to identify active combinations of DNA G-quadruplex stabilizer agents and targeted small molecules. […] Compounds. […] If the clinical Cmax for an agent had not been determined, the highest concentration tested was 10 microM. […]
In this section, each of the molecules is paired with its reported viability, T/C.

Guide cases for viability, T/C, answers given:
- O=C(c1cc(Cc2n[nH]c(=O)c3ccccc23)ccc1F)N1CCN(C(=O)C2CC2)CC1 + Cc1[nH]c2ccc(F)cc2c1-c1nc2c3cccnc3c3ncccc3c2[nH]1: 100%
- CC(C)(O)C1CCC(Nc2ccc3ncc(-c4cccc(C(F)(F)F)c4)n3n2)CC1 (stereo not drawn) + Cc1[nH]c2ccc(F)cc2c1-c1nc2c3cccnc3c3ncccc3c2[nH]1: 109%

Could you tell me which viability, T/C is on file for Nc1ccn(C2OC(CO)C(O)C2(F)F)c(=O)n1 (stereo not drawn) + Cc1[nH]c2ccc(F)cc2c1-c1nc2c3cccnc3c3ncccc3c2[nH]1 ?
20.2%
